# melting point per record follows

Record excerpt, results attached:
# compound, melting point
measured = [
    ("CCNC(=S)NS(=O)(=O)c1cc2c(cc1OC)OCC(NC(=O)c1cc(Cl)ccc1OC)C2 (configuration not stated)", "194 to 195 °C"),
    ("CC(=O)N(Cc1ccc(Cl)cc1Cl)c1cncnc1", "134 to 136 °C"),
    ("CCCCCCCCNC(=O)ON=C(Cc1ccccc1)C1=CC(=O)C(C)(C)O1", "67 to 68 °C"),
    ("CC(C)(C)Nc1nc(N)nc2c1ncn2C1C=CC(CO)C1 (configuration not stated)", "161 to 163 °C"),
    ("COC(=O)c1ccc(-c2nn(Cc3ccccc3)c3ccccc23)o1", "137 to 138 °C"),
]

### Prompt Entry Cc1ccc(NC(N)=S)c(-c2ccccc2)c1 has what melting point?
### Response 175 to 177 °C

### Prompt What do you get for O=C(O)c1ccc(-c2nc(-c3ccc(C(F)(F)F)cc3)cs2)cc1 ?
### Response 164 to 165 °C

### Prompt Queued: O=C(Nc1cc(F)c(-c2ccncc2)c(F)c1)OCc1ccccc1
### Response 185 to 186 °C

### Prompt For CN1CC(CCN2CCN(c3ccc(Br)cc3)CC2)OC1=O (configuration not stated) then?
### Response 125 to 127 °C

### Prompt Subsequent entry: CCOC(=O)C1=C(C)NC(CSCOC(C)=O)=C(C(=O)OCC)C1c1cccc([N+](=O)[O-])c1 (configuration not stated)
### Response 118 to 121 °C

### Prompt Then what about the compound COc1cccc(CNC(=O)c2ncc3ccccc3n2)c1 ?
### Response 91 to 93 °C

### Prompt And CC(C)CC(NC(=O)C(Cc1ccccn1)NC(=O)C(Cc1cccc2ccccc12)NC(=O)OCc1ccccc1)C(O)CC(=O)NCCc1ccccn1 (mixture of isomers) ?
### Response 128 to 133 °C

### Prompt // repeat for O=C(O)C1CCCc2cc(C3CCCCC3)c(Cl)cc21 (configuration not stated) and report
### Response 119 to 120 °C

### Prompt Follow-up item: N=C(NC(=O)c1cccc2ccccc12)N1CC(c2ccccc2)C(c2ccc(Cl)cc2)=N1 (configuration not stated)
### Response 206 to 207 °C

### Prompt Next: COc1cc(C(=O)NS(=O)(=O)c2ccccc2)ccc1Cn1nc(OC)c2ccc(NC(=O)OC3CCCC3)cc21
### Response 246 to 248 °C

### Prompt Entry to check: CCCSc1ccc([N+](=O)[O-])c(NC(=S)NC(=O)OC)c1
### Response 122 to 125 °C

### Prompt Another: Cc1oc(-c2ccccc2)nc1CCc1ccc(/C=C/C=C/C=O)cc1
### Response 107 to 108 °C

====

value_kind: melting point

# compound, value_kind, result_value
data = [
    ("CCOc1ccccc1OCCN(CCCC(OCC)c1ccc(F)cc1)C(C)=O (stereo not drawn)", "melting point", "58 to 60 °C"),
    ("CS(=O)c1cccc2c1C(=O)N1CCCC1c1c(C(=O)OC(C)(C)C)ncn1-2 (stereo not drawn)", "melting point", "224 to 225 °C"),
]

### Prompt Entry CCOC(=O)c1cccn1Cc1ccc(Cl)cc1N : reported melting point = ?
### Response 104 to 107 °C

====

value_kind: melting point

Sample answers from the record:
# compound, result_value
records = [
    ("CC1(C)SC(c2ccc([N+](=O)[O-])o2)NC1C(=O)O (stereo unspecified)", "147 to 148 °C"),
    ("Cn1nnc(-c2ccc3c(c2)c(C2=CCN(CCN4CCNC4=O)CC2)cn3-c2ccc(F)cc2)n1", "201 to 203 °C"),
    ("CC(C)C(=O)N[C@H](CSSC[C@@H](NC(=O)C(C)C)C(=O)O)C(=O)O", "135 to 137 °C"),
    ("C[C@@H](F)c1nc(N)nc(N[C@H]2c3ccccc3C[C@@H]2C)n1", "146 to 150 °C"),
    ("CN(C)C1CCN(c2ccc(NC(=O)n3ccc4cc(Oc5cc(CC(N)=O)ncn5)ccc43)cc2C(F)(F)F)C1 (stereo unspecified)", "182 to 184 °C"),
    ("CC(=O)Nc1c(C(=O)c2ccccc2)[nH]c2ccc(Cl)cc12", "200 to 201 °C"),
    ("CC1(C)C=C(N2CCCC2=O)c2cc(C#N)ccc2C1", "131 to 132 °C"),
    ("COCCSc1cc(N)ncn1", "78 to 80 °C"),
    ("O=c1ccn(-c2cccc3c2OC(F)(F)O3)nc1-c1ccnn1-c1ccccc1", "105 to 107 °C"),
    ("O=CN1CCC(O)(c2ccccc2Cc2ccccc2)CC1", "171 to 174 °C"),
]

### Prompt Tell me the measured melting point of Cc1ccc(N(Cc2cccnc2)S(C)(=O)=O)cc1 , please.
### Response 143 to 146 °C

### Prompt Next up: O=C(NCc1ccccn1)Nc1cc(N2CC(Cc3ccccc3)OC2=O)ccn1 (stereo unspecified)
### Response 191 to 193 °C

### Prompt Similarly, CCCCc1nc2cc(Cl)c(Cl)c(C(=O)O)c2n1Cc1ccccc1Cl ?
### Response 240 °C

### Prompt Check Clc1ccc(N2CCN(CCCc3c4c(nn3-c3ccccn3)CCCC4)CC2)cc1 too.
### Response 101 to 103 °C

### Prompt Try O=[N+]([O-])c1cc(C2=NOC(c3cc(Cl)cc(Cl)c3)(C(F)(F)F)C2)ccc1-n1cncn1 (stereo unspecified) next.
### Response 64 to 72 °C

### Prompt Input COc1cc(Cc2ccccc2)c(O)c2c1C(C)(C)CCC2(C)C
### Response 80 °C

====

Measured melting point by item

# compound, melting point
measured = [
    ("C=C1CN(c2c(F)cc3c(=O)c(C(=O)O)cn([C@@H]4C[C@@H]4F)c3c2OC)C[C@@]1(C)N", "100 to 102 °C"),
    ("CC(=O)c1ccc(Nc2ccncc2N)cc1", "165 to 166 °C"),
    ("C=C(CCC(=O)N1C(=O)OC[C@H]1c1ccccc1)c1ccc(F)cc1F", "50 to 55 °C"),
]

### Prompt What measured melting point goes with CS(=O)(=O)c1ccc(Oc2ccc(Cl)c(Cl)c2)c(C#N)c1 ?
### Response 162 to 163 °C

### Prompt # iterate: COCCOc1cc(NS(=O)(=O)c2ccccn2)c2[nH]c(C3=NCC(CN4CCS(=O)(=O)CC4)S3)cc2c1 (stereo not given)
### Response 218 to 219 °C

====

Reported melting point values are given for each entry in this list.

Sample answers from the record:
# molecule, value_kind, result_value
measured = [
    ("CC1(C)CC(=O)Nc2cc3nc(-c4ccncc4)[nH]c3cc21", "melting point", "201 to 202 °C"),
    ("CC(C)(C)c1cc(-n2nc3ccc(Sc4ccccc4)cc3n2)c(O)c(C(C)(C)C)c1", "melting point", "132 to 134 °C"),
    ("O=c1cc(-c2ccccc2)oc2ccc(OCCCCCN3CCC(O)CC3)cc12", "melting point", "128 to 129 °C"),
    ("COc1ccc(F)cc1C(C)(C)CC(O)(Cn1cc(C)c(=O)c2ccccc21)C(F)(F)F (stereo not given)", "melting point", "> 225 °C"),
]

### Prompt What melting point value was documented for this molecule, CCNC(=O)c1sc(Oc2ccc3c(c2)OCO3)c2c1CCc1cnn(C)c1-2 ?
### Response 138 to 139 °C

### Prompt For COc1cc2ncc(C#N)c(Nc3ccccc3SC)c2cc1OC then?
### Response 245 to 247 °C

### Prompt Now the molecule Cc1ccc(C)n1-c1ccc(I)cc1F
### Response 68 to 70 °C

====

value_kind: melting point

# compound, result_value
rows = [
    ("NNC(=O)c1ccc2c(c1)CCO2", "148 to 149 °C"),
]

### Prompt Given the entry COc1ccc(C(NCC(=O)Nc2c(C(C)C)cccc2C(C)C)c2ccc(OC)cc2)cc1 , report its measured melting point.
### Response 84 to 85 °C

### Prompt Follow-up item: Cc1cc(C)c(CP(=O)(c2ccccc2)c2ccccc2)c(-c2ccc(F)c(C)c2)c1
### Response 109 to 111 °C

### Prompt COc1ccc(OC(=O)c2c3ccccc3nc3ccccc23)cc1 , same question.
### Response 202 to 203 °C

### Prompt Check COc1ccc(CNc2ccc(C(=O)Nc3cccc4cc(C(=O)Nc5cc(C(C)(C)C)cc(NS(C)(=O)=O)c5OC)sc34)cn2)cc1 too.
### Response 137 to 139 °C

### Prompt Same again, this time with CC(C=[N+]([O-])C(C)(C)C)c1ccccc1 (stereo unspecified)
### Response 56 °C
